methodNotes: yeast display, Sf9 membrane polyspecificity reagent, FACS + sequencing; frameworks hold sequencing errors
metric: polyreactivity (PSR sort gate)

The examples below pair each entry with its known result.
inputSequence	polyreactivity (PSR sort gate)
QVQLVESGGGLVQAGGSLRLSCAASGSTFGYYTMGWYRQSPGKERELVAAITWRGGRTYYADSVKGRFTISRDNEKNTVYLQMNSLKPEDTAVYYCAARSTVVMDYWGQGTKVTVSS	high polyreactivity
QVQLVESGGGLVQAGGSLRLSCAASGLTFYRYAMGWYRQAPGKERELVAAIRVSGNTYYADSVKGRFTISRDNAKNTVYLQMNSLKPEDTAVFYCAAIPYYFYGMDYWGQGTQVTVSS	high polyreactivity
QVQLVESGGGLVQAGGSLRLSCADSGRTIRGNAMGWYRQAPGKERELVAAITSSGGGTYYADSVKGRFTISRDNAKNTVYLQMNSLNPEDTAVFYGAAEYRDGYRFSYDYWGQGTQVTVSS	low polyreactivity
QVQLVESGGGLVQAGGSLRLSCAASGIIFWWYTRGWYRQAPGKERELVAAISRGGNTNYADSVKGRFTISRDNAKNTVYLQMNSLKPEDTAGYYCAADRHYRFWQDDYWGQGTQVTVSS	high polyreactivity
QVQLVESGGGLVQAGGSLRLSCAASGGIFDGYAMGWYRQAPGKERELVAAINYSVDRTYYADSVKGRFTISRDNAKNTVYLQMNSLKPVDTAVYYCATVPRYVRFGYGYWGQGTQVTVSS	high polyreactivity

With those in mind, consider the next sequence.
*Q* Given "QVQLVESGGGLVQAGGSLRLSCAASGRTFVGYAMGWYRQAPGKERELVAVISGRGGSTYYADSVKGRFTISRDNAKNTVYLQMNSLKPEDTAVYYCAAYVARKWTSGYWGQGTQVTVSS" , state its recorded polyreactivity (PSR sort gate).
*A* high polyreactivity
